Origin of values: PubChem BioAssay (NCI)

Test: NCI Yeast Anticancer Drug Screen. Data for the cln2 rad14 strain (AID 165);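 also: 0% = growth equal to vehicle treated cultures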
Settings: S. cerevisiae cln2 rad14 strain, at 50.0 µM
This is part of a sample that, as a whole, favours compounds with a hit. Of some 79,000 tested, about 15% had one in any assay. Active and inactive are the calls of the source. Rule as the data show it: active = growth inhibition above about 70%; inactive = the rest.
Select the matching outcome among Yes = active, No = inactive

>>> class_assignment("NC(=O)[N+](=CC(=S)Nc1ccccc1Cl)C(N)=O")
"No"

Next:
Query block: # lookup: test call for "CC(C)(CCc1nc2ccccc2[nH]1)C(=O)O"
Result block: No

----------
Catalogue of growth inhibition values
Assay: NCI Yeast Anticancer Drug Screen. Data for the cln2 rad14 strain (AID 165);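 also: 0% = growth equal to vehicle treated cultures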
Details: S. cerevisiae cln2 rad14 strain, at 50.0 µM, active compounds read high
The panel holds about 79,000 compounds, 15% with a hit somewhere; the sample as a whole holds those more often.
Report as a plain number; the unit % is understood.

Here's what some known entries look like.
>>> reading("C(=C\\c1ccc(-c2ccccc2)cc1)/c1ccc(-c2ccccc2)cc1")
-5.3
>>> reading("CCOc1ccc(NC(=O)c2cccc(C(=O)Nc3ccc(OCC)cc3)c2)cc1")
-20.9
>>> reading("O=C(CCCCCCC(=O)C[N+]12CCC(CC1)C(O)C2)C[N+]12CCC(CC1)C(O)C2 (stereo not drawn)")
0.5
>>> reading("CC1C(C)(C)P(=O)(OCCOP2(=O)C(C)(C)C(C)C2(C)C)C1(C)C (stereo not drawn)")
-9.6
>>> reading("c1ccc(C2=C(c3ccccc3)c3ccccc3C2)cc1")
0.35
>>> reading("COc1cccc(C(N)C(=O)O)c1 (stereo not drawn)")
-26.2

Query block: Could you please provide reported growth inhibition for O=C(ONC1CCC(CC2CCCCC2)CC1)c1ccccc1 (stereo not drawn) ? Thanks!
Result block: 96.8

Query block: Could you please provide reported growth inhibition for Cc1ccc(NC(=O)CCCC(=O)C(C#N)c2ccccc2Cl)cc1C (stereo not drawn) ? Thanks!
Result block: -22.5

Query block: Could you please provide reported growth inhibition for "Nc1cccc2c1C(=O)c1c(N)cccc1C2=O" ? Thanks!
Result block: 98.7

Query block: Could you please provide reported growth inhibition for "O=C1c2ccccc2C(=O)c2c(Nc3ccc4c5c(cccc35)C(=O)c3ccccc3-4)cccc21" ? Thanks!
Result block: -31.7

Query block: Could you please provide reported growth inhibition for "O=C1CCCN(Cc2ccccc2)C1" ? Thanks!
Result block: 1.2

Query block: Could you please provide reported growth inhibition for "COc1cc([N+](=O)[O-])ccc1NC(=O)Nc1c(C)n(C)n(-c2ccccc2)c1=O" ? Thanks!
Result block: 92.6

Query block: Could you please provide reported growth inhibition for "O=c1c2ccccc2c(=O)n2n1CC=CC2" ? Thanks!
Result block: -15.2

Query block: Could you please provide reported growth inhibition for C/C=C(\C)C(=O)OC1CC(C)(O)C(=O)C(OC(=O)/C(C)=C/C)C2(C)CCC(O)(C(C)C)C12 (stereo not drawn) ? Thanks!
Result block: -16.8

Query block: Could you please provide reported growth inhibition for CCC(C)Sc1nc2ccc(NC(=O)/C=C/C(=O)O)cc2s1 (stereo not drawn) ? Thanks!
Result block: 15.7

Query block: Could you please provide reported growth inhibition for "CSc1ccc(NC(=O)Oc2cc(C)c(Cl)cc2C(C)C)cc1" ? Thanks!
Result block: 15.8

Query block: Could you please provide reported growth inhibition for N/C(=N/O)c1cn(C2OC(CO)C(O)C2O)c2ncnc(NO)c12 (stereo not drawn) ? Thanks!
Result block: -1.15

Query block: Could you please provide reported growth inhibition for "O=C1OCC/C1=C1/Nc2ccccc2NC1=O" ? Thanks!
Result block: -22.2

----------
Test: NCI Yeast Anticancer Drug Screen. Data for the bub3 strain (AID 167)
Details: S. cerevisiae bub3 mutant strain, at 50.0 µM, active compounds read high
The panel holds about 79,000 compounds, 15% with a hit somewhere; the sample as a whole holds those more often.
readout: growth inhibition (%)
Report as a plain number; the unit % is understood.

Here's what some known entries look like.
>>> reading("O=C(NC(Nc1ccc(F)c(Cl)c1)(C(F)(F)F)C(F)(F)F)OCc1ccccc1")
-5.5
>>> reading("CN(C)CC1C2CCC(C2)C1O (centres undefined)")
-11.7
>>> reading("c1ccc(OB(Oc2ccccc2)Oc2ccccc2)cc1")
4.2

Query block: Could you please provide reported growth inhibition for NC(=O)C(C1=CCCCC1)c1ccccc1 (centres undefined) ? Thanks!
Result block: 1.95

Query block: Could you please provide reported growth inhibition for "CC(C)=NOC(=O)Nc1ccccc1" ? Thanks!
Result block: 1.7

Query block: Could you please provide reported growth inhibition for "Oc1[nH]c2ccccc2c1N=NC(=S)Nc1ccccc1Cl" ? Thanks!
Result block: 21.8

Query block: Could you please provide reported growth inhibition for "CN(C)c1ccc(-c2c(C#N)c(N)[nH]c(=S)c2C#N)cc1" ? Thanks!
Result block: 16.9

Query block: Could you please provide reported growth inhibition for "COC(=O)CCc1ccc(NC(=O)OC)cc1" ? Thanks!
Result block: 14.8

----------
Catalogue of growth inhibition values
Test: NCI Yeast Anticancer Drug Screen. Data for the bub3 strain (AID 167)
Conditions: S. cerevisiae bub3 mutant strain, at 50.0 µM, active compounds read high
About 79,000 compounds went through this panel and 15% of them were active in at least one assay; those are over-represented in the sample as a whole.
Report as a plain number; the unit % is understood.

>>> reading("OC(NN=C1CCCC1)(C(F)(F)Cl)C(F)(F)Cl")
-14.2
>>> reading("CC(CN(C)C)C(=O)C(=Cc1ccccc1)C(=O)C(C)CN(C)C (stereo not given)")
-2.5
>>> reading("O=c1[nH]cc(C(F)(C(F)(F)F)C(F)(F)F)c(=O)[nH]1")
-25.3
>>> reading("O=C1CSc2ccncc2N1")
15.2
>>> reading("O=P(Nc1ccc(Cl)c(Cl)c1)(N1CCCCC1)N1CCCCC1")
2.45
>>> reading("[Cu+2].[Cu+2].c1ccc2c(c1)-c1nc-2nc2[n-]c(nc3nc(nc4[n-]c(n1)c1ccccc41)-c1ccccc1-3)c1cc3c4nc5nc(nc6[n-]c(nc7nc(nc([n-]4)c3cc21)-c1ccccc1-7)c1ccccc61)-c1ccccc1-5")
-11.1
>>> reading("O=c1nc2sc3ccccc3c(=O)n2[nH]1")
-12.2
>>> reading("N#Cc1ccccc1NC(=O)C(=O)C(C(=O)c1ccncc1)C1OC(=O)c2ccccc21 (stereo not given)")
-0.65

Query block: Could you please provide reported growth inhibition for "CC1=C(C(=O)Nc2ccc([N+](=O)[O-])cc2)C(c2ccc3c(c2)OCO3)C(C(=O)Nc2ccc([N+](=O)[O-])cc2)=C(C)N1" ? Thanks!
Result block: 10.2

Query block: Could you please provide reported growth inhibition for "O=C(Nc1cccc(C(=O)Nc2ccc3cc(S(=O)(=O)O)cc(S(=O)(=O)O)c3c2)c1)Nc1cccc(C(=O)Nc2ccc3cc(S(=O)(=O)O)cc(S(=O)(=O)O)c3c2)c1" ? Thanks!
Result block: 3.65

Query block: Could you please provide reported growth inhibition for "C/C=C/C(=O)OC/C=C(\C)CCC=C(C)C" ? Thanks!
Result block: -39.7

Query block: Could you please provide reported growth inhibition for CCCOc1cc2c(cc1C(C)c1ccc(OCC)cc1)OCO2 (stereo not given) ? Thanks!
Result block: -26.8

Query block: Could you please provide reported growth inhibition for "CN1CCc2nc(N)nc(-c3nc(N)nc4c3CN(C)CC4)c2C1" ? Thanks!
Result block: -37.1

Query block: Could you please provide reported growth inhibition for "COC(=O)/C=C(/C(=O)OC)N(O)C(=O)CN1C(=O)c2ccccc2C1=O" ? Thanks!
Result block: -5.85

Query block: Could you please provide reported growth inhibition for "O=C1C(Br)=CC(Br)=C/C1=N/Br" ? Thanks!
Result block: 70

Query block: Could you please provide reported growth inhibition for "CCOC(=O)/C(=C\c1ccc(N(C)C)cc1)S(=O)(=O)C(F)(F)C(F)(F)C(F)(F)C(F)(F)F" ? Thanks!
Result block: 4.75

Query block: Could you please provide reported growth inhibition for "S=C(Oc1ccccc1)Oc1ccc2ccccc2c1" ? Thanks!
Result block: 15.3

Query block: Could you please provide reported growth inhibition for "CCCCCCCCCCC(CCCCCCCCCC)C1CCCC1" ? Thanks!
Result block: -12.8

Query block: Could you please provide reported growth inhibition for "O=C(CN1C(=O)c2ccccc2C1=O)Oc1ccccc1" ? Thanks!
Result block: 16.4

Query block: Could you please provide reported growth inhibition for "O=C(O)CCc1ccccc1-c1ccccc1C(=O)O" ? Thanks!
Result block: 0.35

Query block: Could you please provide reported growth inhibition for CCCN(CCCC(NC(C)=O)C(=O)NCc1ccccc1)C(=O)N(C)N=O (stereo not given) ? Thanks!
Result block: -14.8

Query block: Could you please provide reported growth inhibition for "CN(C)c1nc(N)c2ccc(Cl)cc2n1" ? Thanks!
Result block: -8.05

Query block: Could you please provide reported growth inhibition for N/C(=N\O)c1c(Br)n(C2OC(CO)C(O)C2O)c2ncnc(N)c12 (stereo not given) ? Thanks!
Result block: -2.05

Query block: Could you please provide reported growth inhibition for "CC(C)(C)CC(C)(C)c1c(O)cc(O)cc1Cl" ? Thanks!
Result block: 99.2

Query block: Could you please provide reported growth inhibition for "O=[N+]([O-])c1cccc(-c2csc(N=Nc3c(O)[nH]c4ccccc34)n2)c1" ? Thanks!
Result block: 14.2

Query block: Could you please provide reported growth inhibition for "O=c1oc2ccccc2cc1-n1nnc2cc([N+](=O)[O-])ccc21" ? Thanks!
Result block: 12.8

Query block: Could you please provide reported growth inhibition for "O=c1[nH]cnc2c1cnn2Cc1ccccc1" ? Thanks!
Result block: 26.1
